Entry source: ChEMBL document CHEMBL1201862

Exercise: for every item that follows, state its recorded GI50.
System: OVCAR-8
assay.comment: NCI tumour cell line growth inhibition, 48 h
Activity calls are given as the source filed them. Rule as the data show it: active = GI50 up to about 1.1 µM and inactive = higher.

# annotated cases, reported GI50 shown
molecule: C=CCn1c(-c2ccc(-c3cs/c(=N\N=O)n3CC=C)cc2)cs/c1=N\N=O
recorded.result: 88.1 µM (inactive)
//
molecule: CCN(C(=S)N[C@@H](Cc1ccccc1)C(=O)N[C@@H](CC(C)C)C(=O)OC)c1ccccc1
recorded.result: > 100 µM (inactive)
//
molecule: CCCCCNC(=O)c1cc2cc(CCl)ccc2oc1=O
recorded.result: 35.7 µM (inactive)
//
molecule: COC(=O)c1c(O)ccc2c1c1c(n2Cc2ccc(OC)cc2)C(=O)c2ccccc2C1
recorded.result: > 100 µM (inactive)

Let us move to another entry and its GI50.
Lab note: molecule Cc1ccc(S(=O)(=O)NC(=O)C2=C3SCCN3C(=O)N(S(=O)(=O)c3ccc(C)cc3)C2c2ccccc2)cc1 (stereo not given) tested on OVCAR-8; recorded GI50 was 77.1 µM (inactive)
